Exercise: for every item that follows, state its recorded composite z-score.
protocol summary: small molecules captured by biotinylated probe aFGF10 – biochemical, small-molecule microarray, fluorescence 635/667, stem cell growth factor project, primary screen (AID 1071);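 further: score merges 667 nm spot intensity and signal to noise from triplicate slides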
assay setup: higher = more signal
Answers are plain numbers.

Take each entry in turn and give its composite z-score.
1. COC(=O)c1c(CC[C@@H](CO)NC(=O)N[C@@H](C)Cn2cc(C3(O)CCCC3)nn2)oc(C(C)=O)c1C(=O)OC
2. COCCCNC(=O)[C@@H]1c2ccccc2C(=O)N(c2ccc(C)cn2)[C@H]1c1ccc(CO)cc1
3. COC(=O)[C@@]1(Cc2ccc(OC)cc2)[C@H]2c3cc(C(=O)N(C)C)n(Cc4cc(C)n(C)n4)c3C[C@H]2CN1C(=O)c1ccccc1
4. CN(C)CCCCNC(=O)[C@H]1C[C@H]2C(=O)N[C@@H](CCCC[N+](C)(C)C)C(=O)N2[C@H]1c1cccc(OCCO)c1

0.143
-0.286
1.26
-0.0012

Report composite z-score for each item below.
1. NC(=O)[C@H]1[C@@H]2C(=O)O[C@@H](c3ccccc3)[C@@H](c3ccccc3)N2[C@@H](c2ccc(O)cc2)[C@]12C(=O)Nc1ccc(C#CC3(O)CCCCCC3)cc12
2. COc1ccc(C(=O)Nc2ccc(CN3C(=O)[C@@]4(O[C@@H](CC(=O)N5Cc6ccccc6C[C@H]5CO)[C@H]([Si](C)(C)c5ccc(OC)cc5)[C@H]4C)c4ccccc43)cc2)cc1

0.607
0.158

====

protocol summary: plasmodial surface anion channel blockers, osmotic lysis – cell-based, P. falciparum Indochina, OD700, 18 h, primary screen (AID 1157)
assay setup: P. falciparum Indochina infected erythrocytes, osmotic lysis OD700, 18 h; higher = more signal, called active from +8 up or from −8 down
Calls of active or inactive are those of the source.
readout: z-score

Take each entry in turn and give its z-score.
1. CN1C(=O)C2C=CC(C(O)c3ccc(F)cc3)N(N3CCCCC3)C2C1=O (stereo not drawn)
2. COC(=O)[C@@]1(Cc2ccc(OC)cc2)[C@H]2c3cc(C(=O)N(C)C)n(CCF)c3C[C@H]2CN1C(=O)c1ccccc1
3. CC(C)N1CC=CC23O[C@@H]4C=CCOC(=O)[C@@H]4[C@H]2C(=O)N(CCCCCCO)[C@@H]3C1=O (stereo partly drawn)

1.2 (inactive)
1.06 (inactive)
0.65 (inactive)

====

Answer each item with its documented composite z-score.
target or test system: Fibroblast growth factor 2 (Homo sapiens)
protocol summary: basic fibroblast growth factor binding to printed compounds – biochemical, small-molecule microarray, 635/667 nm fluorescence, primary screen (AID 1133)
assay setup: FGF2, fluorescence 635/667, higher = more signal

CCOC(=O)C[C@H]1[C@H](OC(=O)c2ccccc2-c2ccccc2)[C@@H](NC(=O)c2ccccc2)c2cc(OCCCO)ccc2N1C(=O)Cc1ccc(OC)cc1 :: -0.188
COCCOC(=O)N1C(=O)[C@@]2(c3cc(C#CCNC(N)=O)ccc31)[C@H](C(=O)N1CCCCCCC1)[C@H]1C(=O)O[C@H](c3ccccc3)[C@H](c3ccccc3)N1[C@@H]2c1ccc(OCCO)cc1 :: 0.126
CCCC=C(CCC)[C@@H](NS(=O)(=O)c1cccc2cccnc12)c1ccc(C(=O)OC)cc1 :: 0.33
COc1ccc([Si](C)(C)[C@@H]2[C@@H](CC(=O)N(CCO)Cc3ccccc3)O[C@]3(C(=O)N(C)c4c(Br)cc(C)cc43)[C@H]2C)cc1 :: 0.957
CC(C)C(CO)N1C(=O)[C@@H]2[C@H]3C(=O)OCC=C[C@H]3OC23C=CCN(CCN2CCOCC2)C(=O)[C@@H]13 (stereo partly specified) :: -0.328
COCCCNC(=O)[C@@]1(Cc2ccccc2N=[N+]=[N-])N=C(c2ccc(OCCCO)cc2)O[C@H]1c1ccccc1CN=[N+]=[N-] :: 0.969
CN1C(=O)C2C=CC(C(O)c3ccc(F)cc3)N(N3CCCCC3)C2C1=O (stereo unspecified) :: -0.627
COCC(=C=CC[C@@H](O)c1ccccc1OCCO)C[C@@H](O)COCc1ccccc1 :: 0.456

Each of the following entries comes with a recorded value; kindly state composite z-score for each.
1. [N-]=[N+]=Nc1ccccc1C[C@]1(C(=O)NCCN2CCOCC2)N=C(c2ccc(OCCCO)cc2)O[C@H]1c1ccccc1N=[N+]=[N-]
2. COCC(=C=CC[C@@H](O)c1ccccc1OCCO)C[C@@H](O)c1ccccn1
3. C/C=C/[C@@H](CCn1cc([C@H](O)c2ccccc2)nn1)[Si](C)(C)c1ccc(OC)cc1
4. CC(C)c1ccc(NN2C(C(O)c3ccccn3)C=CC3C(=O)N(c4ccccc4)C(=O)C32)cc1 (stereo unspecified)
5. O=C1O[C@H](c2ccccc2)[C@H](c2ccccc2)N2[C@H]1[C@@H](C(=O)N1CCN(c3ncccn3)CC1)[C@]1(C(=O)Nc3ccc(C#CCCO)cc31)[C@H]2c1ccc(OCCO)cc1
6. [N-]=[N+]=NCc1ccccc1C[C@]1(C(=O)NCCN2CCOCC2)N=C(c2ccc(OCCCO)cc2)O[C@H]1c1ccccc1

1. 1.65
2. 0.466
3. -0.62
4. 1.48
5. 0.597
6. 0.473

Please give composite z-score for each item listed below.
1. COc1ccc([Si](C)(C)[C@H]2[C@H](CCn3cc(CCO)nn3)O[C@@]3(C(=O)N(Cc4cccc(N5C(=O)c6cccc7cccc5c67)c4)c4ccccc43)[C@@H]2C)cc1
2. C=C(COC)C(=O)CC[C@H](OC(=O)c1ccccc1-c1ccccc1C(=O)O)c1ccc(OCCO)cc1
3. C=C(CCCC)/C(=C/C[C@@H](OC(=O)c1ccncc1)c1ccccc1OCCO)c1cc(C(=O)OC)ccc1OC
4. COCCOC(=O)N1C(=O)[C@@]2(c3cc(C#Cc4ccc(OC)cc4)ccc31)[C@H](C(=O)N1CCc3cc(OC)c(OC)cc3C1)[C@H]1C(=O)O[C@H](c3ccccc3)[C@H](c3ccccc3)N1[C@@H]2c1ccc(OCCO)cc1
5. CO[C@H]1O[C@H](CO)[C@@H](OC(=O)Nc2ccc(C(F)(F)F)cc2)[C@H](OC(=O)Nc2ccccc2)[C@H]1OC(=O)Nc1ccccc1

[0.691, 1.35, 0.213, 1.3, 0.805]

Please state composite z-score for every compound in the list that follows.
1. CCCN1C(=O)[C@@H]2Cc3c([nH]c4ccccc34)[C@@H](c3cccc(O)c3)N2C1=O
2. C=CCC(OC(C)=O)[C@@H]1[C@@H](N(Cc2ccc(-c3ccccc3)cc2)C(=O)Cc2ccc(OC)cc2)c2cc(OCCCO)ccc2N1C(=O)c1ccc(-c2ccccc2)cc1 (stereo partly specified)

1. 0.428
2. -0.0805

Items follow; give composite z-score for each.
1. Cc1ccc(S[C@]2(C(=O)NCc3ccccc3)CC(=O)N(C3Cc4ccccc4C3)[C@@H]2c2ccc(CO)cc2I)cc1
2. O=C1C[C@@](C(=O)NCc2ccccc2)(c2ccc([N+](=O)[O-])cc2)[C@@H](c2ccc(CO)cc2I)N1C1CCCCC1
3. COCCOC(=O)N1C(=O)[C@@]2(c3cc(C#CCCO)ccc31)[C@H](C(=O)N1CCc3cc(OC)c(OC)cc3C1)[C@H]1C(=O)O[C@H](c3ccccc3)[C@H](c3ccccc3)N1[C@@H]2c1ccc(OCCO)cc1
4. O=C1NC(=O)C2C1C=CC(C(O)c1ccc3c(c1)OCO3)N2Nc1ccc(Cl)cc1Cl (stereo unspecified)
5. CC(C)c1ccc(NN2C(C(O)c3cccs3)C=CC3C(=O)N(c4ccccc4)C(=O)C32)cc1 (stereo unspecified)

-0.244
1.25
1.29
-0.0317
-0.737

====

protocol summary: resazurin metabolic signal in HepG2 cells – cell-based, resazurin fluorescence, 24 h, PK04 Diversity Set, profiling panel (AID 1172); further: test concentration not given here
assay setup: HepG2 viability, higher = more signal
readout: z-score

Study these solved cases before continuing.
CCCCC(CC)C(O)C1C=CC2C(=O)NC(=O)C2N1Nc1ccccn1 (stereo not given) :: -1.39
[N-]=[N+]=NCc1ccccc1[C@H]1OC(c2ccc(OCCCO)cc2)=N[C@@]1(Cc1ccccc1N=[N+]=[N-])C(=O)N1CCCCC1 :: -0.585

Hey, can you go through the list below and give me z-score for every item?
1. COCCCNC(=O)[C@@]1(Cc2ccccc2I)c2ccccc2C(=O)N(Cc2ccccc2Cl)[C@H]1c1ccc(CO)cc1
2. CN(C)C(=O)[C@@]1(CCC(=O)OC(C)(C)C)N=C(c2ccc(OCCCO)cc2)O[C@H]1c1ccccc1N=[N+]=[N-]
3. [N-]=[N+]=Nc1ccccc1C[C@]1(C(=O)NCCN2CCOCC2)N=C(c2ccc(OCCCO)cc2)O[C@H]1c1ccccc1N=[N+]=[N-]
4. COC(=O)[C@@]1(Cc2ccc(F)cc2)[C@H]2c3cc(C(=O)N(C)C)n(CCSCCO)c3C[C@H]2CN1C(=O)c1ccccc1

[1.01, 0.506, -1.31, -0.234]

I would be grateful if you could provide z-score for each of the following entries.
1. O=c1c2ccc(Br)cc2nc(-c2ccccc2)n1Cc1cccc(O)c1
2. C=C[C@H](C)[C@H](OC(=O)Nc1ccc(SC)cc1)c1ccc(O)c2ccccc12
3. COC(=O)[C@@]1(Cc2ccc(OC)cc2)[C@H]2c3cc(C(=O)N(C)C)n(CCF)c3C[C@H]2CN1C(=O)c1ccccc1
4. COc1ccc([Si](C)(C)[C@H]2[C@H](CCn3cc(CCO)nn3)O[C@@]3(C(=O)N(Cc4cccc(N5C(=O)c6cccc7cccc5c67)c4)c4ccccc43)[C@@H]2C)cc1
5. CN1C(=O)C2C=CC(C(O)C3CCCCC3)N(N(c3ccccc3)c3ccccc3)C2C1=O (stereo not given)
6. O=C1O[C@@H](c2ccccc2)[C@@H](c2ccccc2)N2[C@@H](c3ccc(O)cc3)[C@]3(C(=O)Nc4ccc(C#CC5(O)CCCCCC5)cc43)[C@@H](C(=O)N3CCN(c4ncccn4)CC3)[C@H]12
7. CCCN1C(=O)[C@@H]2Cc3c([nH]c4ccccc34)[C@@H](c3cccc(O)c3)N2C1=O

-0.187
-1.13
0.586
-2.74
-0.11
1.63
0.944
